- Tested on: Plasmodium falciparum
- Protocol Details: Antimalarial activity against synchronous culture of Plasmodium falciparum 3D7 ring stage parasite infected in human erythrocytes incubated for 6 hrs followed by compound wash out and measured after 24 hrs by NanoGlo-reagent based bioluminescence assay
- Format: functional, cell-based
pEC50: −log10 of the molar value.

# Compound, pEC50
rows = [
    ("CCN(CC)CCCC(C)Nc1ccnc2cc(Cl)ccc12 (centres undefined)", 6.19),
    ("CN1CCN(CCNc2nc(Nc3ccc(Cl)c(F)c3)nc3ccccc23)CC1.Cl.Cl", 5.51),
    ("C[C@@H]1CC[C@H]2[C@@H](C)C(=O)O[C@@H]3O[C@@]4(C)CC[C@@H]1[C@]32OO4", 8.30),
    ("CN1CCN(CCNc2nc(Nc3ccc(F)c(Cl)c3)nc3ccccc23)CC1.Cl.Cl", 5.53),
]
